Some binders, each annotated with its measured activity.
- Tested System: T1, VEGF-A165 (Homo sapiens)
- T1 chain: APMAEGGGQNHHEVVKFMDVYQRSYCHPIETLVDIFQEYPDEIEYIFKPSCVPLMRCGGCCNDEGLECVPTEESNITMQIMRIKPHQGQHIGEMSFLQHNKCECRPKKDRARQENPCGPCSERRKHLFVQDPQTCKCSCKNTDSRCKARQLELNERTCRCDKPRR
- Experiment: cell_activity; KDR phosphorylation; >50% at 100 nM with VEGF-A121
- Particulars: tags: glycan-biotinylated for SPR/FRET/AlphaLISA; Acro BioSystems, R&D Systems; chain copies: 2 (inferred)

- Binder: "UAGUCCGCCUCCGCGCGGAGGGGUUUCAUUAUCCCGUUUGGCGGCUUU (ssRNA, all G 2'-F; A,C,U 2'-OMe; 5' C6NH2; 3' idT) [Aptamer 29]"
  activity: "> 50 % inhibition at 10 nM"
- Binder: "UAGGCCGCCUCCGCGCGGAGGGGUUUCAUUUAUCCCGUUUGGCGGCUUU (ssRNA, all G 2'-F; A,C,U 2'-OMe; 5' C6NH2; 3' idT) [Aptamer 30]"
  activity: "> 50 % inhibition at 10 nM"
- Binder: "UAGGCCGCCUCCGCGCGGAGGGGUUUCAUUAUCCCGUUUGGCGGCCUU (ssRNA, all G 2'-F; A,C,U 2'-OMe; 5' C6NH2; 3' idT) [Aptamer 32]"
  activity: "> 50 % inhibition at 10 nM"

Switching to the query record.
Qu. What value of activity has been recorded for this entry: UAGACCGCCUCCGCGCGGAGGGGUUUCAUUAUCCCGUUUGGCGGCUUU (ssRNA, all G 2'-F; A,C,U 2'-OMe; 5' C6NH2; 3' idT) [Aptamer 31]
Ans. > 50 % inhibition at 10 nM
